Target: Protein cereblon/Zinc finger protein Aiolos (Homo sapiens, UniProt Q96SW2+Q9UKT9)
Sequence (Q96SW2 whole entry, the tested form may be a part): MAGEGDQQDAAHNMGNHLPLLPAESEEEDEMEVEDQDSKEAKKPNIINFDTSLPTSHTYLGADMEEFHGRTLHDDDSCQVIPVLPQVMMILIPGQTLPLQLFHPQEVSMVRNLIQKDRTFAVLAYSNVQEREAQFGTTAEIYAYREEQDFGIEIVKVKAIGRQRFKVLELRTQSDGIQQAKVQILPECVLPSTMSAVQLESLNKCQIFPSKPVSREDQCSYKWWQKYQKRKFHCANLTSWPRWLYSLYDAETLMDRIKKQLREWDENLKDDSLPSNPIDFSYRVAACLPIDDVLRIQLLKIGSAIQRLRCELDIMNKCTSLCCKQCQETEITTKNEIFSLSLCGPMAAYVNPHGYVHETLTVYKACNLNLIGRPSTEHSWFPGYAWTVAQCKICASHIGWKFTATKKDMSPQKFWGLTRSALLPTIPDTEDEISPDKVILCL
Sequence (Q9UKT9 whole entry, the tested form may be a part): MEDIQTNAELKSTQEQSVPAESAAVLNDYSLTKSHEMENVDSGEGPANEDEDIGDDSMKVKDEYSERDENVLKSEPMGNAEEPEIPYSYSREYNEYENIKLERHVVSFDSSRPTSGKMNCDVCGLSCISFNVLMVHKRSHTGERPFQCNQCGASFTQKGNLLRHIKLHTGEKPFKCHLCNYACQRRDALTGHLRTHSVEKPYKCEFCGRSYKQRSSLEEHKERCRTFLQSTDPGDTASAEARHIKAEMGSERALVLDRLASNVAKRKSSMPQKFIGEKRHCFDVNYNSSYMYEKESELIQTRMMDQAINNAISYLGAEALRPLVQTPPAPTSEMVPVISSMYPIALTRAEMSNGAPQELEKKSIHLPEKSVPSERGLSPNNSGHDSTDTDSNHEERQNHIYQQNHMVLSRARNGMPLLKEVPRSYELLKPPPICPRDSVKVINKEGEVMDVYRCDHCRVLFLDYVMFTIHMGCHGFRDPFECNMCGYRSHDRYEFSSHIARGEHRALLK
Assay: Induction of CRBN-mediated pLOC-ePL-tagged aiolos (unknown origin) degradation in human DF15 cells assessed as minimum protein remaining incubated for 4 hrs by luminescence based beta-galactosidase enzyme fragmentation complementation assay
Measured parameter: EC50 (pM)
Express it in pM; write the number only.

For the compound CN1CCN(Cc2ccc(COc3cccc4c3CN(C3CCC(=O)NC3=O)C4=O)cc2)CC1 (stereo unspecified) , what EC50 is on record?
3000

Can you look up the measured EC50 of O=C1CCC(N2Cc3c(OCc4ccc(CN5CCN(c6ccc(Cl)cc6Cl)CC5)cc4)cccc3C2=O)C(=O)N1 (stereo unspecified) for me?
200

I'd like to know its EC50. The compound in question is O=C1CCC(N2C(=O)c3cccc(OCc4ccc(CN5CCN(c6ccc(F)cc6F)CC5)cc4)c3C2=O)C(=O)N1 (stereo unspecified)
2400

Return reported EC50; argument: N#Cc1ccc(N2CCN(Cc3ccc(COc4cccc5c4CN(C4CCC(=O)NC4=O)C5=O)cc3)CC2)c(F)c1 (stereo unspecified)
100

What value of EC50 has been recorded for this entry: O=C1CCC(N2Cc3c(OCc4ccc(C(=O)N5CCN(c6ccc(F)cc6F)CC5)cc4)cccc3C2=O)C(=O)N1 (stereo unspecified)
100
